B1: DYRK1B (parent)
chain: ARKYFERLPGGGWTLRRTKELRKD

Variants of: B1
Experiment: protein stability index of a GFP-peptide fusion (GPS, HEK-293T) (PSI 1-6); higher = more stable;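 note: lentivirally expressed fusions sorted by FACS into six bins by GFP to DsRed ratio, PSI derived from sequencing read proportions per bin multiplied by bin number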
Settings: c terminus: a fixed tail appended
Short version: protein stability index at least 4 is TRUE, less is FALSE.

Example entries and their recorded answers appear below.
{"columns": ["sequence", "category.label"],
 "data": [
  ["ARKGFERLPGGGWTLRRTKELRKD [Y4G]", "TRUE"],
  ["ARKYFERLPGGGWTLRRTKGLRKD [E20G]", "TRUE"],
  ["ARKYFEGLPGGGWTLRRTKELRKD [R7G]", "FALSE"],
  ["ARKYFERLPGGGWTLRRTKELYKD [R22Y]", "FALSE"],
  ["ARKYFERLHGGGWTLRRTKELRKD [P9H]", "FALSE"]
]}

Query: Exam item: decide whether the reported protein stability index for ARKYFERNPGGGWTLRRTKELRKD [L8N] is at least 4.
Reply: FALSE

Query: Say whether KRKYFERLPGGGWTLRRTKELRKD [A1K] shows protein stability index of 4 or more.
Reply: TRUE

Query: I'd appreciate it if you could say whether ARKYFERLPGSGWTLRRTKELRKD [G11S] has protein stability index at least equal to 4.
Reply: FALSE

Query: Determine whether measured protein stability index meets or exceeds 4 for ARKYFERLPRGGWTLRRTKELRKD [G10R]
Reply: FALSE

Query: Evaluate ARKYFERLPGGGWTLRRTKELRKK [D24K] : protein stability index at minimum 4?
Reply: FALSE

Query: Assess whether reported protein stability index for ARKYFERLPGGGWTLRRTKALRKD [E20A] sits at 4 or higher.
Reply: TRUE

Query: Does protein stability index meet or surpass 4 for ARKYFERLPGGGWTLRRTKELRKL [D24L] ?
Reply: FALSE

Query: Does the reported protein stability index for AGKYFERLPGGGWTLRRTKELRKD [R2G] fall at or above the 4 mark?
Reply: FALSE

Query: Confirm if protein stability index reported for the variant ARKYFEELPGGGWTLRRTKELRKD [R7E] is 4 or above.
Reply: TRUE

Query: # check: protein stability index of ARKYFERLPGGGWTLRRTKELRQD [K23Q] is greater than or equal to 4
Reply: FALSE

Query: Can ARKYFERLPMGGWTLRRTKELRKD [G10M] be said to have protein stability index at or above 4?
Reply: FALSE

Query: In plain terms: is recorded protein stability index at least 4 for ARKYFERLPGGGRTLRRTKELRKD [W13R] ?
Reply: FALSE

Query: Decide: is the reported value of protein stability index for ARKYFERLPGGGWTLRRTKKLRKD [E20K] equal to or greater than 4?
Reply: FALSE

Query: Given ARKYFERLPGGGWTLRRTKELRID [K23I] , state whether its protein stability index is at least 4.
Reply: FALSE

Query: Is protein stability index at least 4? Consider AWKYFERLPGGGWTLRRTKELRKD [R2W]
Reply: FALSE

Query: Kindly determine if protein stability index recorded for ARKYMERLPGGGWTLRRTKELRKD [F5M] is above or exactly 4.
Reply: FALSE

Query: Could you please find out whether FRKYFERLPGGGWTLRRTKELRKD [A1F] has protein stability index that meets 4 or exceeds it?
Reply: FALSE

Query: Reported protein stability index reaches at least 4 for ARKYFERRPGGGWTLRRTKELRKD [L8R] ?
Reply: FALSE

Query: Check this variant for protein stability index at or above 4: ARKCFERLPGGGWTLRRTKELRKD [Y4C]
Reply: FALSE

Query: Is protein stability index for ARKDFERLPGGGWTLRRTKELRKD [Y4D] at or above 4?
Reply: TRUE

Query: Given the entry ARKYFERLPGGFWTLRRTKELRKD [G12F] , answer whether its protein stability index meets or surpasses 4.
Reply: FALSE

Query: Could you please find out whether ARKYFERLPGGGWTLRRTKELRKI [D24I] has protein stability index that meets 4 or exceeds it?
Reply: FALSE

Query: protein stability index >= 4 for ARKYFERLPGGGWTLRGTKELRKD [R17G] ?
Reply: FALSE

Query: Answer whether protein stability index of ARKYFERLPGGSWTLRRTKELRKD [G12S] is greater than or equal to 4.
Reply: FALSE

Query: Check if protein stability index >= 4 (inclusive). Item: AQKYFERLPGGGWTLRRTKELRKD [R2Q]
Reply: FALSE

Query: Does ARKYFEQLPGGGWTLRRTKELRKD [R7Q] have a reported protein stability index of at least 4?
Reply: TRUE
